All values here come from PubChem BioAssay AID248.

Entries and their measured T/C follow.
test system: L1210 leukemia ip in BDF1 mice, survival T/C; experiment: NCI In Vivo Anticancer Drug Screen. Data for tumor model L1210 Leukemia (intraperitoneal) in B6D2F1 (BDF1) mice; conditions: endpoint: mean survival time; dose: 25.0 mg/kg/injection; schedule: Q04DX003 (ip); vehicle: saline with Tween-80; higher = longer survival
Toxic doses and inconclusive results are not listed.
measure name: T/C

| chem smiles | assay result |
| --- | --- |
| CCN(CC)C(=O)c1ccc[n+](CC(=O)Nc2ccc(Cl)cc2)c1 | 94 % of control |
| C1=C[N]2c3c4c(ccc3=C1)=CC=C[N]4[Ga]2[c]1ccccc1 | 88 % of control |
| COc1ccc(C=NCCN=Cc2ccc(OC)cc2OC)c(OC)c1 | 95 % of control |
| C=CC[As](=O)(O)O | 98 % of control |
| Clc1cc(CBr)c(CBr)cc1Cl | 97 % of control |
| CCCNC1(C(N)=O)CCN(Cc2ccccc2)CC1 | 97 % of control |
| Nc1nc2c(ncn2-c2cccc(-c3ccccc3)c2)c(=O)[nH]1 | 100 % of control |
| Cc1ncc(C#N)c(=O)[nH]1 | 92 % of control |
| C/C=C/C1N(C)CCCN1C | 102 % of control |
